Please go through the items and note down their solubility at 2 h.
test: Solubility of peptide compounds in buffer formulations (Table 5); assay type: physicochemical; details: aqueous buffer; 50 mM phosphate buffer pH 6.5, 2 h agitation, target 1 mg/ml; read-out: Solubility, Buffer pH 6.5
Numbered stars: 1 amine (or outer) side, 2 acyl side, 3 side chain; on linkers, the order of the positions; unused ones are H or OH. Bridge positions count the residues as written; N and C are the ends. Square brackets hold non-standard residues; d marks the D form. Peptide text beside a SMILES is read from it. * marks the point of attachment. Lys(Me,(CH2)4NMe(CH2)5CO) = CN(CCCCCC(=O)[*:3])CCCCN(C)CCCC[C@H](N[*:1])C(=O)[*:2]; Lys(Me,(CH2)4NMe(CH2)4CO) = CN(CCCCC(=O)[*:3])CCCCN(C)CCCC[C@H](N[*:1])C(=O)[*:2]; Trp(7-Me) = Cc1cccc2c(C[C@H](N)C(=O)O)c[nH]c12; 2Nal = N[C@@H](Cc1ccc2ccccc2c1)C(=O)O; Suberoyl = O=C(CCCCCCC(=O)[*:2])[*:1]; X4 = O=C(CCCCCCCCCCCCCCCN[*:1])[*:2]; 3Pal = N[C@@H](Cc1cccnc1)C(=O)O; Aun = NCCCCCCCCCCC(=O)O; Thp = NC1(C(=O)O)CCOCC1; Me2NCH2CH2 = CN(C)CC*; Aib = CC(C)(N)C(=O)O; Sar = CNCC(=O)O

Examples with answers:
[[record]]
molecule = "Cc1cccc2c(C[C@@H]3NC(=O)CCCCCCC(=O)NCCCC[C@@H](C(=O)N[C@@H](CC(N)=O)C(=O)N[C@@H](Cc4cccnc4)C(=O)N(C)CC(N)=O)NC(=O)C(C)(C)NC(=O)[C@H](Cc4ccc5ccccc5c4)NC(=O)[C@H](Cc4ccc(OCCN(C)C)cc4)NC(=O)C4(CCOCC4)NC(=O)[C@H](CCC(N)=O)NC3=O)c[nH]c12 [compound 12] ([Trp(7-Me)]Q[Thp]Y(Me2NCH2CH2)[2Nal][Aib]KN[3Pal][Sar]-NH2; linker N-7 via Suberoyl)"
endpoint_result = "≥ 1.1 mg/mL"

[[record]]
molecule = "Cc1cccc2c(C[C@@H]3NC(=O)CCCCCCCCCCNC(=O)CC[C@@H](C(=O)N[C@@H](CC(N)=O)C(=O)N[C@@H](Cc4cccnc4)C(=O)N(C)CC(N)=O)NC(=O)C(C)(C)NC(=O)[C@H](Cc4ccc5ccccc5c4)NC(=O)[C@H](Cc4ccc(OCCN(C)C)cc4)NC(=O)C4(CCOCC4)NC(=O)[C@H](CC(C)C)NC3=O)c[nH]c12 [compound 7] ([Aun][Trp(7-Me)]L[Thp]Y(Me2NCH2CH2)[2Nal][Aib]EN[3Pal][Sar]-NH2; lactam N-8)"
endpoint_result = "< 0.01 mg/mL"

[[record]]
molecule = "Cc1cccc2c(C[C@@H]3NC(=O)CCCCCN(C)CCCCN(C)CCCC[C@@H](C(=O)N[C@@H](CC(N)=O)C(=O)N[C@@H](Cc4cccnc4)C(=O)N(C)CC(N)=O)NC(=O)C(C)(C)NC(=O)[C@H](Cc4ccc5ccccc5c4)NC(=O)[C@H](Cc4ccc(OCCN(C)C)cc4)NC(=O)C4(CCOCC4)NC(=O)[C@H](CCC(N)=O)NC3=O)c[nH]c12 [compound 31] ([Trp(7-Me)]Q[Thp]Y(Me2NCH2CH2)[2Nal][Aib][Lys(Me,(CH2)4NMe(CH2)5CO)]N[3Pal][Sar]-NH2; lactam N-7)"
endpoint_result = "≥ 1.22 mg/mL"

[[record]]
molecule = "CC(=O)NCCCC[C@@H]1NC(=O)[C@H](Cc2c[nH]c3c(C)cccc23)NC(=O)CCCCN(C)CCCCN(C)CCCC[C@@H](C(=O)N[C@@H](CO)C(=O)N[C@@H](Cc2cccnc2)C(=O)N(C)CC(N)=O)NC(=O)C(C)(C)NC(=O)[C@H](Cc2ccc3ccccc3c2)NC(=O)[C@H](Cc2ccc(OCCN(C)C)cc2)NC(=O)C2(CCOCC2)NC1=O [compound 39] ([Trp(7-Me)]K(Ac)[Thp]Y(Me2NCH2CH2)[2Nal][Aib][Lys(Me,(CH2)4NMe(CH2)4CO)]S[3Pal][Sar]-NH2; lactam N-7)"
endpoint_result = "≥ 0.89 mg/mL"


Shifting focus to the molecule that follows.
Asked: Quick check: solubility at 2 h of Cc1cccc2c(C[C@@H]3NC(=O)CCCCCCCCCCCCCCCNC(=O)CC[C@@H](C(=O)N[C@@H](CC(N)=O)C(=O)N[C@@H](Cc4cccnc4)C(=O)N(C)CC(N)=O)NC(=O)C(C)(C)NC(=O)[C@H](Cc4ccc5ccccc5c4)NC(=O)[C@H](Cc4ccc(OCCN(C)C)cc4)NC(=O)C4(CCOCC4)NC(=O)[C@H](CCC(N)=O)NC3=O)c[nH]c12 [compound 3] ([X4][Trp(7-Me)]Q[Thp]Y(Me2NCH2CH2)[2Nal][Aib]EN[3Pal][Sar]-NH2; lactam N-8) ?
Given back: < 0.01 mg/mL
